Listed below: IC50 values for each entry.
# tgt: organic anion transporting polypeptide 1B1 (OATP1B1) (Homo sapiens (Human))
# Sequence (Q9Y6L6 whole entry): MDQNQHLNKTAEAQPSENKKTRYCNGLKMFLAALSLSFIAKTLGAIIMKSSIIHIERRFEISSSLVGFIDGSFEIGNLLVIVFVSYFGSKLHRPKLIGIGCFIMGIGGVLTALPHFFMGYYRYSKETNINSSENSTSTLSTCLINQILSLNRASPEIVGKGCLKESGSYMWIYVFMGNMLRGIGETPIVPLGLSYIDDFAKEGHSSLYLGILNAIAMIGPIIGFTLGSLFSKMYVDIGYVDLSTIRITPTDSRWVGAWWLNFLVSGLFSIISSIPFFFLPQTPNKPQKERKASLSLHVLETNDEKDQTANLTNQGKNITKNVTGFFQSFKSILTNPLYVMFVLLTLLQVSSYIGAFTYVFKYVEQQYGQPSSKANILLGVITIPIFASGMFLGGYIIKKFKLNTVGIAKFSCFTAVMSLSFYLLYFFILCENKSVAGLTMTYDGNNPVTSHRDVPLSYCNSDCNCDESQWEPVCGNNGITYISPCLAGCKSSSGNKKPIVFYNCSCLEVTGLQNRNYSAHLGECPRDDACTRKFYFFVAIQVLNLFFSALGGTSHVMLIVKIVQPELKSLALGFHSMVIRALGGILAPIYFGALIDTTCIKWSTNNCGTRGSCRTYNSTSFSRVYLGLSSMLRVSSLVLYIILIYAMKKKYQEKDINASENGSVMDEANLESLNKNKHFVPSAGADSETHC
# assay_comment: OATP assay in CHO-OATP1B1 cells;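 note: inhibition of probe substrate uptake into the cells, ten minutes exposure, accumulated substrate read by fluorescence once cells were lysed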
Starred links: 1 amine or outer side, 2 acyl side, 3 side chain; linkers in the order of their positions; H or OH if unused. Non-standard residues stand in square brackets, D forms with d. Residues, ends and D or L forms follow the SMILES beside them. X45 = C[C@H](CCC(=O)N1CC2CCC(C1)O2)[C@@H](C(=O)[*:2])N(C)[*:1]; X53 = C[C@H](CN(C)Cc1cccnc1)[C@@H](C(=O)[*:2])N(C)[*:1]; MeBmt = C/C=C/C[C@@H](C)[C@@H](O)[C@H](NC)C(=O)O; NMeL = CN[C@@H](CC(C)C)C(=O)O; NMeV = CN[C@H](C(=O)O)C(C)C; dNMeA = CN[C@H](C)C(=O)O; Abu = CC[C@H](N)C(=O)O
Give the quantity in nM, number only.

C/C=C/C[C@@H](C)[C@@H](O)[C@H]1C(=O)N[C@@H](CC)C(=O)N(C)[C@H](C)C(=O)N(C)[C@@H]([C@H](C)CCC(=O)N2CC3CCC(C2)O3)C(=O)N[C@@H](C(C)C)C(=O)N(C)[C@@H](CC(C)C)C(=O)N[C@@H](C)C(=O)N[C@H](C)C(=O)N(C)[C@@H](CC(C)C)C(=O)N(C)[C@@H](CC(C)C)C(=O)N(C)[C@@H](C(C)C)C(=O)N1C [Compound 2.14.2] (cyclo(A[dA][NMeL][NMeL][NMeV][MeBmt][Abu][dNMeA][X45]V[NMeL])): 1900

Note: attention shifts to another entry.
IC50 for C/C=C/C[C@@H](C)[C@@H](O)[C@H]1C(=O)N[C@@H](CC)C(=O)N(C)[C@H](C)C(=O)N(C)[C@@H]([C@H](C)CN(C)Cc2cccnc2)C(=O)N[C@@H](C(C)C)C(=O)N(C)[C@@H](CC(C)C)C(=O)N[C@@H](C)C(=O)N[C@H](C)C(=O)N(C)[C@@H](CC(C)C)C(=O)N(C)[C@@H](CC(C)C)C(=O)N(C)[C@@H](C(C)C)C(=O)N1C [Compound 2.5.25] (cyclo(A[dA][NMeL][NMeL][NMeV][MeBmt][Abu][dNMeA][X53]V[NMeL])) ?
1000

###

# tgt: cyclophilin A (CypA) (Homo sapiens (Human), UniProt P62937)
# Sequence (P62937 whole entry): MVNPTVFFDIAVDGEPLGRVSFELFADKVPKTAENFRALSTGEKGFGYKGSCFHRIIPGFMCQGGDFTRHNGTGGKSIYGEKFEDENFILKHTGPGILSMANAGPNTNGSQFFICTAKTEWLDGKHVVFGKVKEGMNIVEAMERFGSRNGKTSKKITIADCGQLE
# assay_comment: Inhibitor binding to cyclophilin proteins by SPR, CypA;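 note: Single-cycle kinetics on a Biacore T200, compound injected at several concentrations for 1 min each at 50 µL/min, then 10 min dissociation, in HEPES pH 7.4 buffer with 3% DMSO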
# Set-up: unit not given here
# conditions_used: 1:1 binding model
Starred links: 1 amine or outer side, 2 acyl side, 3 side chain; linkers in the order of their positions; H or OH if unused. Non-standard residues stand in square brackets, D forms with d. Residues, ends and D or L forms follow the SMILES beside them. X16 = C[C@H](CN1CCN(S(C)(=O)=O)CC1)[C@@H](C(=O)[*:2])N(C)[*:1]; X53 = C[C@H](CN(C)Cc1cccnc1)[C@@H](C(=O)[*:2])N(C)[*:1]; X30 = C[C@H](CN1CCCOCC1)[C@@H](C(=O)[*:2])N(C)[*:1]; X4 = C[C@H](CS(C)(=O)=O)[C@@H](C(=O)[*:2])N(C)[*:1]; MeBmt = C/C=C/C[C@@H](C)[C@@H](O)[C@H](NC)C(=O)O; NMeVal(4-OMe,3S) = CN[C@H](C(=O)O)[C@H](C)COC; NMeL = CN[C@@H](CC(C)C)C(=O)O; NMeV = CN[C@H](C(=O)O)C(C)C; dNMeS = CN[C@H](CO)C(=O)O; dNMeA = CN[C@H](C)C(=O)O; Abu = CC[C@H](N)C(=O)O
Listed below: CypA Kd values for each entry.
Give your answer as a number; write no unit.

Recorded results for 4 molecules are shown here.
C/C=C/C[C@@H](C)[C@@H](O)[C@H]1C(=O)N[C@@H](CC)C(=O)N(C)[C@H](CO)C(=O)N(C)[C@@H]([C@H](C)COC)C(=O)N[C@@H](C(C)C)C(=O)N(C)[C@@H](CC(C)C)C(=O)N[C@@H](C)C(=O)N[C@H](C)C(=O)N(C)[C@@H](CC(C)C)C(=O)N(C)[C@@H](CC(C)C)C(=O)N(C)[C@@H](C(C)C)C(=O)N1C [Compound 3.2.3] (cyclo(A[dA][NMeL][NMeL][NMeV][MeBmt][Abu][dNMeS][NMeVal(4-OMe,3S)]V[NMeL])): 15
C/C=C/C[C@@H](C)[C@@H](O)[C@H]1C(=O)N[C@@H](CC)C(=O)N(C)[C@H](C)C(=O)N(C)[C@@H]([C@H](C)CS(C)(=O)=O)C(=O)N[C@@H](C(C)C)C(=O)N(C)[C@@H](CC(C)C)C(=O)N[C@@H](C)C(=O)N[C@H](C)C(=O)N(C)[C@@H](CC(C)C)C(=O)N(C)[C@@H](CC(C)C)C(=O)N(C)[C@@H](C(C)C)C(=O)N1C [Compound 2.4] (cyclo(A[dA][NMeL][NMeL][NMeV][MeBmt][Abu][dNMeA][X4]V[NMeL])): 1.5
C/C=C/C[C@@H](C)[C@@H](O)[C@H]1C(=O)N[C@@H](CC)C(=O)N(C)[C@H](C)C(=O)N(C)[C@@H]([C@H](C)CN2CCN(S(C)(=O)=O)CC2)C(=O)N[C@@H](C(C)C)C(=O)N(C)[C@@H](CC(C)C)C(=O)N[C@@H](C)C(=O)N[C@H](C)C(=O)N(C)[C@@H](CC(C)C)C(=O)N(C)[C@@H](CC(C)C)C(=O)N(C)[C@@H](C(C)C)C(=O)N1C [Compound 2.5.5] (cyclo(A[dA][NMeL][NMeL][NMeV][MeBmt][Abu][dNMeA][X16]V[NMeL])): 3.3
C/C=C/C[C@@H](C)[C@@H](O)[C@H]1C(=O)N[C@@H](CC)C(=O)N(C)[C@H](C)C(=O)N(C)[C@@H]([C@H](C)CN(C)Cc2cccnc2)C(=O)N[C@@H](C(C)C)C(=O)N(C)[C@@H](CC(C)C)C(=O)N[C@@H](C)C(=O)N[C@H](C)C(=O)N(C)[C@@H](CC(C)C)C(=O)N(C)[C@@H](CC(C)C)C(=O)N(C)[C@@H](C(C)C)C(=O)N1C [Compound 2.5.25] (cyclo(A[dA][NMeL][NMeL][NMeV][MeBmt][Abu][dNMeA][X53]V[NMeL])): 1.8

Note: attention shifts to another entry.
CypA Kd for C/C=C/C[C@@H](C)[C@@H](O)[C@H]1C(=O)N[C@@H](CC)C(=O)N(C)[C@H](C)C(=O)N(C)[C@@H]([C@H](C)CN2CCCOCC2)C(=O)N[C@@H](C(C)C)C(=O)N(C)[C@@H](CC(C)C)C(=O)N[C@@H](C)C(=O)N[C@H](C)C(=O)N(C)[C@@H](CC(C)C)C(=O)N(C)[C@@H](CC(C)C)C(=O)N(C)[C@@H](C(C)C)C(=O)N1C [Compound 2.5.21] (cyclo(A[dA][NMeL][NMeL][NMeV][MeBmt][Abu][dNMeA][X30]V[NMeL])) ?
1.9

###

# tgt: CypF (Homo sapiens (Human), UniProt P30405)
# Sequence (P30405 30-207): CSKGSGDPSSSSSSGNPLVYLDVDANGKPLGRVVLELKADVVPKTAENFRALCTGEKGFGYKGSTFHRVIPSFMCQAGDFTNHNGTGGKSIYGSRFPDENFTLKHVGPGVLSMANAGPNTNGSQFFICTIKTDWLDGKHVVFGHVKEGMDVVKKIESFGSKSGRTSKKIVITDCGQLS
# assay_comment: Inhibitor binding to cyclophilin proteins by SPR, CypF
# conditions_used: 1:1 binding model
# Protocol: Method 1: Measuring Inhibitor Binding to Cyclophilin Proteins Binding of inhibitors to expressed cyclophilins was determined using surface plasmon resonance (SPR) experiments. Briefly, avi-tagged cyclophilin proteins with mono-biotinylation were immobilized onto a Biotin CAPture chip (GE Healthcare, cat. #28920234). […] Data was analyzed using Biacore T200 Evaluation Software Version 1.0 and a 1:1 binding model was applied to fit the data to obtain kon, koff, and KD.
Starred links: 1 amine or outer side, 2 acyl side, 3 side chain; linkers in the order of their positions; H or OH if unused. Non-standard residues stand in square brackets, D forms with d. Residues, ends and D or L forms follow the SMILES beside them. X44 = CC(C)N1CCN(C(=O)COC[C@@H](C)[C@@H](C(=O)[*:2])N(C)[*:1])CC1; X16 = C[C@H](CN1CCN(S(C)(=O)=O)CC1)[C@@H](C(=O)[*:2])N(C)[*:1]; X25 = CCN1CCO[C@H](COC[C@@H](C)[C@@H](C(=O)[*:2])N(C)[*:1])C1; X12 = C[C@@H](CN1CCN(C2CCC2)CC1)[C@@H](C(=O)[*:2])N(C)[*:1]; X83 = C[C@H](COC(=O)N1CCC(O)CC1)[C@@H](C(=O)[*:2])N(C)[*:1]; MeBmt = C/C=C/C[C@@H](C)[C@@H](O)[C@H](NC)C(=O)O; NMeL = CN[C@@H](CC(C)C)C(=O)O; NMeV = CN[C@H](C(=O)O)C(C)C; dNMeA = CN[C@H](C)C(=O)O; Abu = CC[C@H](N)C(=O)O
endpoint_name: CypF Kd (nM)
Give the quantity in nM, number only.

Recorded results for 4 compounds are shown here.
C/C=C/C[C@@H](C)[C@@H](O)[C@H]1C(=O)N[C@@H](CC)C(=O)N(C)[C@H](C)C(=O)N(C)[C@@H]([C@H](C)COC[C@@H]2CN(CC)CCO2)C(=O)N[C@@H](C(C)C)C(=O)N(C)[C@@H](CC(C)C)C(=O)N[C@@H](C)C(=O)N[C@H](C)C(=O)N(C)[C@@H](CC(C)C)C(=O)N(C)[C@@H](CC(C)C)C(=O)N(C)[C@@H](C(C)C)C(=O)N1C [Compound 2.20.1] (cyclo(A[dA][NMeL][NMeL][NMeV][MeBmt][Abu][dNMeA][X25]V[NMeL])): 0.5
C/C=C/C[C@@H](C)[C@@H](O)[C@H]1C(=O)N[C@@H](CC)C(=O)N(C)[C@H](C)C(=O)N(C)[C@@H]([C@H](C)CN2CCN(S(C)(=O)=O)CC2)C(=O)N[C@@H](C(C)C)C(=O)N(C)[C@@H](CC(C)C)C(=O)N[C@@H](C)C(=O)N[C@H](C)C(=O)N(C)[C@@H](CC(C)C)C(=O)N(C)[C@@H](CC(C)C)C(=O)N(C)[C@@H](C(C)C)C(=O)N1C [Compound 2.5.5] (cyclo(A[dA][NMeL][NMeL][NMeV][MeBmt][Abu][dNMeA][X16]V[NMeL])): 1.7
C/C=C/C[C@@H](C)[C@@H](O)[C@H]1C(=O)N[C@@H](CC)C(=O)N(C)[C@H](C)C(=O)N(C)[C@@H]([C@H](C)COCC(=O)N2CCN(C(C)C)CC2)C(=O)N[C@@H](C(C)C)C(=O)N(C)[C@@H](CC(C)C)C(=O)N[C@@H](C)C(=O)N[C@H](C)C(=O)N(C)[C@@H](CC(C)C)C(=O)N(C)[C@@H](CC(C)C)C(=O)N(C)[C@@H](C(C)C)C(=O)N1C [Compound 2.6.4] (cyclo(A[dA][NMeL][NMeL][NMeV][MeBmt][Abu][dNMeA][X44]V[NMeL])): 0.6
C/C=C/C[C@@H](C)[C@@H](O)[C@H]1C(=O)N[C@@H](CC)C(=O)N(C)[C@H](C)C(=O)N(C)[C@@H]([C@@H](C)CN2CCN(C3CCC3)CC2)C(=O)N[C@@H](C(C)C)C(=O)N(C)[C@@H](CC(C)C)C(=O)N[C@@H](C)C(=O)N[C@H](C)C(=O)N(C)[C@@H](CC(C)C)C(=O)N(C)[C@@H](CC(C)C)C(=O)N(C)[C@@H](C(C)C)C(=O)N1C [Compound 2.17.3] (cyclo(A[dA][NMeL][NMeL][NMeV][MeBmt][Abu][dNMeA][X12]V[NMeL])): 0.3

CypF Kd for C/C=C/C[C@@H](C)[C@@H](O)[C@H]1C(=O)N[C@@H](CC)C(=O)N(C)[C@H](C)C(=O)N(C)[C@@H]([C@H](C)COC(=O)N2CCC(O)CC2)C(=O)N[C@@H](C(C)C)C(=O)N(C)[C@@H](CC(C)C)C(=O)N[C@@H](C)C(=O)N[C@H](C)C(=O)N(C)[C@@H](CC(C)C)C(=O)N(C)[C@@H](CC(C)C)C(=O)N(C)[C@@H](C(C)C)C(=O)N1C [Compound 2.5.8] (cyclo(A[dA][NMeL][NMeL][NMeV][MeBmt][Abu][dNMeA][X83]V[NMeL])) ?
1
